Numbers sourced from ChEMBL document CHEMBL1770142.

Would you kindly list solubility for each of these compounds?
METHOD_DESCRIPTION: Solubility of the compound in phosphate buffer saline
Assay type: physicochemical
Write it as a number; the unit µg/mL goes unstated.

Data request: Let me know recorded solubility for O=C(O)CN1C2=C([C@H](c3ccc(Br)cc3)n3ncnc31)[C@@H](c1ccc(Br)cc1)Oc1ccccc12 , thanks.
Data returned: 132

Data request: Identify measured solubility associated with O=C(O)CCCCN1C2=C([C@H](c3ccc(Br)cc3)n3ncnc31)[C@@H](c1ccc(Br)cc1)Oc1ccccc12
Data returned: 6.1

###

METHOD_DESCRIPTION: Oral bioavailability in rat at 5 mg/kg, po
Assay type: ADME, organism-based
CONDITION_CONTEXT: in vivo
PARAMETER: bioavailability
Remember to quote the unit after the number.

Data request: # return recorded bioavailability for input CN1C2=C([C@H](c3ccc(Br)cc3)n3ncnc31)[C@@H](c1ccc(Br)cc1)Oc1ccccc12
Data returned: 23%
